Assay Method Text: Clearance in Beagle dog at 10 mg/kg, po and 3 mg/kg, iv
Assay type: ADME, organism-based, Canis lupus familiaris
Measurement Conditions: in vivo
Metric Name: clearance

mol_smiles=Cc1cc(Nc2nc(N[C@@H](C)c3ncc(F)cn3)c(C#N)nc2C)n[nH]1 test_result="< 2 mL/min/kg"

====

Tested On: Tyrosine-protein kinase JAK2 (Homo sapiens)
Sequence (O60674 whole entry, the tested form may be a part): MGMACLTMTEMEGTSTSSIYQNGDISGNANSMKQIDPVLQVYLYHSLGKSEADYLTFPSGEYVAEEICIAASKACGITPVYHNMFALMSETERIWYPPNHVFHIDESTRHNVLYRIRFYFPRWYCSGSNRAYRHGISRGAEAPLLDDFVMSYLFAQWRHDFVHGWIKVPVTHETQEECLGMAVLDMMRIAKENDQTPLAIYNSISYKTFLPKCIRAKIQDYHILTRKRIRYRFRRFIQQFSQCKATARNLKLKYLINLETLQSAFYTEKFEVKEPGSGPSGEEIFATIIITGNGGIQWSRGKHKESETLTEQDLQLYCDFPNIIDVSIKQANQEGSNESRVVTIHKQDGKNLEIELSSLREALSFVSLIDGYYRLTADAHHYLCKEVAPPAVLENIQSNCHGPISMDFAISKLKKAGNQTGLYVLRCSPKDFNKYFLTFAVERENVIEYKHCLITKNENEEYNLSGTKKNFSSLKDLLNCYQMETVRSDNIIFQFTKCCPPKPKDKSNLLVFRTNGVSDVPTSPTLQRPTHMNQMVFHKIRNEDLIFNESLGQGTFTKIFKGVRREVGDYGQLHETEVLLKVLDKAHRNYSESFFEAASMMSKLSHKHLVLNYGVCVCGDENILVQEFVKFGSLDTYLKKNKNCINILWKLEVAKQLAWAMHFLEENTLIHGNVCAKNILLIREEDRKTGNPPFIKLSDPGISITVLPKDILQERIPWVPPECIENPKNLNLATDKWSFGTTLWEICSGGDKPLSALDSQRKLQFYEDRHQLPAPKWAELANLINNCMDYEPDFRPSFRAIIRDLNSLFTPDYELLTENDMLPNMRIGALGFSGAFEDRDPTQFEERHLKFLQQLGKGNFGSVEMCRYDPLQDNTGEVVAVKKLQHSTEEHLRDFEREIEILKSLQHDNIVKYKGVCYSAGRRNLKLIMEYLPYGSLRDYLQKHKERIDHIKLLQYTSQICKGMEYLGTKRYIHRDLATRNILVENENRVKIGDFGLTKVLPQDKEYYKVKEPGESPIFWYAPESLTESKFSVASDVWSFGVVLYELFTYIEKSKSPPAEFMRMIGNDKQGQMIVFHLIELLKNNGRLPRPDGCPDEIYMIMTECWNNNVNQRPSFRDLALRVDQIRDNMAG
Assay Method Text: Inhibition of Tel-fused JAK2
The entries below come with measured GI50 values attached.
Metric Name: GI50 (nM)

mol_smiles=Cc1cc(Nc2nc(N[C@@H](C)c3ncc(F)cn3)c(C#N)nc2C)n[nH]1 test_result=220
mol_smiles=Cc1cc(Nc2cnc(C#N)c(N[C@@H](C)c3ncc(F)cn3)n2)n[nH]1 test_result=160
mol_smiles=Cc1cc(Nc2cnc(C#N)c(N[C@@H](C)c3ccc(F)cn3)n2)n[nH]1 test_result=60
mol_smiles=Cc1cc(Nc2nc(N[C@@H](C)c3ccc(F)cn3)c(C#N)nc2C)n[nH]1 test_result=110
